B1: APBB1IP (parent)
chain: FNYSVGFKDLNESLNALEDQDLDA

variants of: B1; assay: protein stability index of a GFP-peptide fusion (GPS, HEK-293T) (PSI 1-6); higher = more stable; details: c terminus: a fixed tail appended;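 also: lentivirally expressed fusions sorted by FACS into six bins by GFP to DsRed ratio, PSI derived from sequencing read proportions per bin multiplied by bin number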
The entries below come with measured protein stability index values attached.
Form: value (number only, do not type unit).

Field: example entries. Status: answers known.
For reference, reported protein stability index for D21K stands at 4.19

For reference, reported protein stability index for Y3N stands at 5.12

Continuing:
For reference, reported protein stability index for D21C stands at 3.57

For reference, reported protein stability index for D9P stands at 4.15

For reference, reported protein stability index for F1P stands at 5.21
